Target: BRAF (Homo sapiens, UniProt P15056)
Construct: purchased Eurofins Genomics KK; (BRAF); Thermo Fisher Scientific Inc. (MEK1)
Sequence (P15056 417-766 limits assumed): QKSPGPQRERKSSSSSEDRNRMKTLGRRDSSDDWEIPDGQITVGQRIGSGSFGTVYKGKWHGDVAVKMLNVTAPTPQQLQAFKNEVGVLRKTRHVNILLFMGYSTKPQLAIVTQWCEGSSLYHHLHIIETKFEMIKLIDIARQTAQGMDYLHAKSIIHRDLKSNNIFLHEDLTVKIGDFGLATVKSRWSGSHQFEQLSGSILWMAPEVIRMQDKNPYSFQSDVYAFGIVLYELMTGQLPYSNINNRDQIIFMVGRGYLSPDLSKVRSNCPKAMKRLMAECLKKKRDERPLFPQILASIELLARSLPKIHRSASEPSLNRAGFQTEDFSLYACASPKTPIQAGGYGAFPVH
Assay: BRAF-inhibiting activity, time-resolved fluorescence-fluorescence resonance energy transfer assay
Type: biochemical
Conditions: read-out: BRAF IC50; Table 3
Kindly state IC50 for each of the entries shown.
// return numeric value only (unit: nM, not printed)

INPUT: What measured IC50 goes with CNS(=O)(=O)Nc1cccc(Cc2cc(C(=O)NC3CC3)c(Nc3ccc(I)cc3F)c(F)c2F)c1 [Compound C-6] ?
OUTPUT: 9

INPUT: What measured IC50 goes with NC(=O)c1cc(Cc2ccnc(NS(N)(=O)=O)c2)c(F)c(F)c1Nc1ccc(I)cc1F [Compound C-1] ?
OUTPUT: 4

INPUT: What measured IC50 goes with COCCS(=O)(=O)Nc1cccc(Cc2cc(C(N)=O)c(Nc3ccc(I)cc3F)c(F)c2F)c1F [Compound D-5] ?
OUTPUT: 7

INPUT: What measured IC50 goes with O=C(NC1CC1)c1cc(Cc2ccnc(NS(=O)(=O)NC3CC3)c2F)c(F)c(F)c1Nc1ccc(I)cc1F [Compound A-5] ?
OUTPUT: 5

###

Kindly state IC50 for each of the entries shown.
Target: MEK1 (Homo sapiens, UniProt Q02750)
Construct: purchased Thermo Fisher Scientific Inc. (MEK1, CRAF); Carna Biosciences, Inc. (ERK2)
Sequence (Q02750 whole entry): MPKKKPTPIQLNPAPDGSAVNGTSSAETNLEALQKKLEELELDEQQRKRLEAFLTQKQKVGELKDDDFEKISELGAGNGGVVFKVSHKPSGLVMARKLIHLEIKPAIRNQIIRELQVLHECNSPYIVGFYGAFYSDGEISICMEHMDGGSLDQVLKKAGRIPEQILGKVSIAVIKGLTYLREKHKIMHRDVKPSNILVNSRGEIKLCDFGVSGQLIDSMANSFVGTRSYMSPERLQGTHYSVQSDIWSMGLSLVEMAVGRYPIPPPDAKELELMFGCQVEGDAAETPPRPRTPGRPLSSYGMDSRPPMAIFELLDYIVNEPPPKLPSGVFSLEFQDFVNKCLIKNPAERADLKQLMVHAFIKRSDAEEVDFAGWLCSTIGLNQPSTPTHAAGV
Test: MEK1-inhibiting activity, fluorescent polarization method (CRAF/MEK1/ERK2 cascade, IMAP)
Format: biochemical
Conditions: Table 3; read-out: MEK1 IC50
// return numeric value only (unit: nM, not printed)

INPUT: Tell me reported IC50 for CNS(=O)(=O)Nc1cc(Cc2cc(C(N)=O)c(Nc3ccc(I)cc3F)c(F)c2F)ccn1 [Compound C-3] , tested with MEK1 (Homo sapiens, UniProt Q02750).
OUTPUT: 12

INPUT: Tell me reported IC50 for Cc1c(Nc2ccc(I)cc2F)c(C(N)=O)cn(Cc2ccnc(NS(=O)(=O)NC3(C)CCC3)c2F)c1=O [Compound P-3] , tested with MEK1 (Homo sapiens, UniProt Q02750).
OUTPUT: 3

INPUT: Tell me reported IC50 for CNS(=O)(=O)Nc1nccc(Cc2cc(C(=O)NC3CC3)c(Nc3ccc(I)cc3F)c(F)c2F)c1F [Compound A-2] , tested with MEK1 (Homo sapiens, UniProt Q02750).
OUTPUT: 5

INPUT: Tell me reported IC50 for COCC1(S(=O)(=O)Nc2cccc(Cc3cc(C(=O)NOC(C)(C)C)c(Nc4ccc(I)cc4F)c(F)c3F)c2F)CC1 [Compound E-4] , tested with MEK1 (Homo sapiens, UniProt Q02750).
OUTPUT: 131

###

Kindly state pIC50 for each of the entries shown.
Biological target: BRAF (Homo sapiens, UniProt P15056)
Construct: purchased Eurofins Genomics KK; (BRAF); Thermo Fisher Scientific Inc. (MEK1)
Assay: BRAF-inhibiting activity, time-resolved fluorescence-fluorescence resonance energy transfer assay
Assay type: biochemical
Conditions: read-out: BRAF IC50; Table 3
Reminder that pIC50 is minus the log10 of a molar concentration.

INPUT: What measured pIC50 goes with COCCNS(=O)(=O)Nc1nccc(Cc2cc(C(=O)NOC(C)(C)C)c(Nc3ccc(I)cc3F)c(F)c2F)c1F ?
OUTPUT: 8.40

INPUT: What measured pIC50 goes with NC(=O)c1cc(Cc2ccnc(NS(=O)(=O)NC3CC3)c2F)c(F)c(F)c1Nc1ccc(I)cc1F ?
OUTPUT: 8.10

INPUT: What measured pIC50 goes with CNS(=O)(=O)Nc1nccc(Cc2cc(C(=O)NOC(C)(C)C)c(Nc3ccc(I)cc3F)n(C)c2=O)c1F ?
OUTPUT: 8.00

INPUT: What measured pIC50 goes with CCCNS(=O)(=O)Nc1nccc(Cn2cc(C(N)=O)c(Nc3ccc(I)cc3F)c(F)c2=O)c1F ?
OUTPUT: 9.00

###

Assay: Human liver microsome stability
Type: in vitro ADME
Conditions: human liver microsomes, pH 7.4
readout_kind: microsomal CLint at 0.99 µM (µL/min/mg)
// return numeric value only (unit: µL/min/mg, not printed)

INPUT: What measured microsomal CLint at 0.99 µM goes with CNS(=O)(=O)Nc1nccc(Cc2cc(C(N)=O)c(Nc3ccc(Br)cc3F)c(F)c2F)c1F [Compound A-27] ?
OUTPUT: 4

INPUT: What measured microsomal CLint at 0.99 µM goes with O=C(NOC[C@H](O)CO)c1ccc(F)c(F)c1Nc1ccc(I)cc1F [Ref-1, reference compound] ?
OUTPUT: 20

INPUT: What measured microsomal CLint at 0.99 µM goes with CC(C)ONC(=O)c1cc(Cc2ccnc(NS(=O)(=O)NC3(C)CCC3)c2F)c(F)c(F)c1Nc1ccc(I)cc1F [Compound A-12] ?
OUTPUT: 121

INPUT: What measured microsomal CLint at 0.99 µM goes with CONC(=O)c1cc(Cc2cccc(NS(=O)(=O)NC3(C)CCC3)c2F)c(F)c(F)c1Nc1ccc(I)cc1F [Compound D-13] ?
OUTPUT: 88

INPUT: What measured microsomal CLint at 0.99 µM goes with CNS(=O)(=O)Nc1nccc(Cc2cc(C(=O)NC3CC3)c(Nc3ccc(I)cc3F)c(F)c2F)c1F [Compound A-2] ?
OUTPUT: 25

INPUT: What measured microsomal CLint at 0.99 µM goes with CC(C)(C)ONC(=O)c1cc(Cc2cccc(NS(=O)(=O)C3(C)CC3)c2F)c(F)c(F)c1Nc1ccc(I)cc1F [Compound E-6] ?
OUTPUT: 105

INPUT: What measured microsomal CLint at 0.99 µM goes with CNS(=O)(=O)Nc1nccc(Cc2cc(C(=O)NOC)c(Nc3ccc(I)cc3F)c(F)c2F)c1F [Compound A-13] ?
OUTPUT: 31

INPUT: What measured microsomal CLint at 0.99 µM goes with CNS(=O)(=O)Nc1nccc(Cc2cc(C(=O)NC3CC3)c(Nc3ccc(C4CC4)cc3F)c(F)c2F)c1F [Compound G-1] ?
OUTPUT: 32

INPUT: What measured microsomal CLint at 0.99 µM goes with COCCNS(=O)(=O)Nc1nccc(Cc2cc(C(N)=O)c(Nc3ccc(I)cc3F)c(F)c2F)c1F [Compound A-33] ?
OUTPUT: 6

INPUT: What measured microsomal CLint at 0.99 µM goes with COCCNS(=O)(=O)Nc1cc(Cc2cc(C(N)=O)c(Nc3ccc(I)cc3F)c(F)c2F)ccn1 [Compound C-2] ?
OUTPUT: 17

INPUT: What measured microsomal CLint at 0.99 µM goes with CNS(=O)(=O)Nc1cccc(Cc2cc(C(=O)NOC)c(Nc3ccc(C4CC4)cc3F)c(F)c2F)c1F [Compound D-16] ?
OUTPUT: 51

INPUT: What measured microsomal CLint at 0.99 µM goes with CCNS(=O)(=O)Nc1nccc(Cc2cc(C(N)=O)c(Nc3ccc(I)cc3F)n(C)c2=O)c1F [Compound J-14] ?
OUTPUT: 34

INPUT: What measured microsomal CLint at 0.99 µM goes with CCS(=O)(=O)Nc1cccc(Cc2cc(C(=O)NOC)c(Nc3ccc(I)cc3Cl)c(F)c2F)c1F [Compound E-9] ?
OUTPUT: 13

INPUT: What measured microsomal CLint at 0.99 µM goes with CNS(=O)(=O)Nc1nccc(Cc2cc(C(=O)NOC(C)(C)C)c(Nc3ccc(I)cc3F)c(F)c2F)c1F [Compound A-8] ?
OUTPUT: 33

INPUT: What measured microsomal CLint at 0.99 µM goes with CCS(=O)(=O)Nc1nccc(Cc2cc(C(=O)NOC)c(Nc3ccc(C4CC4)cc3F)c(F)c2F)c1F [Compound G-8] ?
OUTPUT: 26

###

Kindly state pIC50 for each of the entries shown.
Target: BRAF (Homo sapiens, UniProt P15056)
Construct: purchased Eurofins Genomics KK; (BRAF); Thermo Fisher Scientific Inc. (MEK1)
Assay: BRAF-inhibiting activity, time-resolved fluorescence-fluorescence resonance energy transfer assay
Format: biochemical
Details: read-out: BRAF IC50; Table 3
Reminder that pIC50 is minus the log10 of a molar concentration.

INPUT: Tell me reported pIC50 for CONC(=O)c1cc(Cc2cccc(NS(=O)(=O)C3(C)CC3)c2F)c(F)c(F)c1Nc1ccc(I)cc1F , tested with BRAF (Homo sapiens, UniProt P15056).
OUTPUT: 8.10

INPUT: Tell me reported pIC50 for CNS(=O)(=O)Nc1nccc(Cc2cc(C(N)=O)c(Nc3ccc(Br)cc3F)c(F)c2F)c1F , tested with BRAF (Homo sapiens, UniProt P15056).
OUTPUT: 8.15

INPUT: Tell me reported pIC50 for CCS(=O)(=O)Nc1cccc(Cc2cc(C(=O)NC3CC3)c(Nc3ccc(I)cc3F)c(F)c2F)c1F , tested with BRAF (Homo sapiens, UniProt P15056).
OUTPUT: 7.68

INPUT: Tell me reported pIC50 for CC1(NS(=O)(=O)Nc2nccc(Cc3cc(C(N)=O)c(Nc4ccc(I)cc4F)c(F)c3F)c2F)CC1 , tested with BRAF (Homo sapiens, UniProt P15056).
OUTPUT: 8.30

INPUT: Tell me reported pIC50 for COCCNS(=O)(=O)Nc1nccc(Cc2cc(C(=O)NC3CC3)c(Nc3ccc(I)cc3F)n(C)c2=O)c1F , tested with BRAF (Homo sapiens, UniProt P15056).
OUTPUT: 7.92

INPUT: Tell me reported pIC50 for CCNS(=O)(=O)Nc1nccc(Cc2cc(C(=O)NC3CC3)c(Nc3ccc(I)cc3F)c(F)c2F)c1F , tested with BRAF (Homo sapiens, UniProt P15056).
OUTPUT: 8.70

INPUT: Tell me reported pIC50 for CNS(=O)(=O)Nc1cccc(Cc2cc(C(=O)NOC)c(Nc3ccc(I)cc3F)c(F)c2F)c1F , tested with BRAF (Homo sapiens, UniProt P15056).
OUTPUT: 8.52

meta.source: patent EP4725941A1
